Tested on: PPARg:RXRa DBDmut IVT, anti-RXR (DBD mutation: RXRa K156A/R161A, NR concentration 270 nM, RXRa partner concentration 90 nM)
Assay: PBM binding z-score (relative to random genomic background probes); higher = stronger binding; sequences stand for … in GC…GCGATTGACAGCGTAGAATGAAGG
Decide by PBM binding z-score: equal to or exceeding 2 means true (1), less means false (0).

Please review the following examples before continuing.
RESIDUE CODES | LABEL CLASS
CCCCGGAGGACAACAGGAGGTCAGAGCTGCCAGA | false (0)
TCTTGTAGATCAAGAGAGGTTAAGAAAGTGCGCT | false (0)
CAGACTGGGGCAAGGTTACCATAACGCACAGCCA | true (1)
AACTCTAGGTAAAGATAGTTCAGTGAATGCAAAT | true (1)
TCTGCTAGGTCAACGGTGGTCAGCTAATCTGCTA | true (1)

In: Tell me whether PBM binding z-score is at least 2 here: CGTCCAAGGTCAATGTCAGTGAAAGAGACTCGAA
Out: true (1)

In: Tell me whether PBM binding z-score is at least 2 here: TCTAGCAGGGCAGAGGGTCACTCAAGAGGTACGG
Out: false (0)

In: Tell me whether PBM binding z-score is at least 2 here: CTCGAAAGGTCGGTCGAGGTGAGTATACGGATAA
Out: false (0)

In: Tell me whether PBM binding z-score is at least 2 here: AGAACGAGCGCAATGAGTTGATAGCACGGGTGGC
Out: false (0)

In: Tell me whether PBM binding z-score is at least 2 here: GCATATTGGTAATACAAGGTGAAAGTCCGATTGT
Out: false (0)

In: Tell me whether PBM binding z-score is at least 2 here: ATAGCAAGGTGATCGTGAGGTCGTTGATACTAAC
Out: false (0)

====

I'd appreciate it if you could supply PBM binding z-score values for the items below.
System: LXRa homodimer (NR concentration 270 nM)
Assay: PBM binding z-score (relative to random genomic background probes); higher = stronger binding; sequences stand for … in GC…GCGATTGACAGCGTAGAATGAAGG
Answers are plain numbers.

Respectfully, I request PBM binding z-score for each entry included below.
1. GCTAGCCGGCCATTTGGGTCACTCAATGACGGGC
2. GCTGTTAGTTGAAAGGGCAACCGAATGATTCTCG
3. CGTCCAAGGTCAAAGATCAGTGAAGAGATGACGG

Out:
[-0.475, -0.0723, 0.528]

Respectfully, I request PBM binding z-score for each entry included below.
1. ACAGACAGGAGATGAAGGTAACTCAGGCTATCAT
2. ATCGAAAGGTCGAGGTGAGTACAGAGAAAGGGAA
3. ATCTCTAGGTAACCCAGTTCAGTGAATGCCGAAC
4. GTGACTGGGGCATCAGCAGGTTACCATAACTTAA

Out:
[0.173, 0.276, 0.606, -0.049]

Respectfully, I request PBM binding z-score for each entry included below.
1. CGTCCAAGATCAAAGGTCAGTGAAGAGATGACGG
2. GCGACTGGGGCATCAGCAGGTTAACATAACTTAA
3. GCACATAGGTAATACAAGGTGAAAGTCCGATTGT

Out:
1. 1.53
2. -0.456
3. 0.0603
